B1: library; a variant is named by its letters at N, in order (parent)
chain: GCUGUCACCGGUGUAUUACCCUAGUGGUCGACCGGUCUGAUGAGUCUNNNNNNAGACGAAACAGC

- Variants of: B1
- ASSAY_COMMENT: normalized RNA/DNA level without ligand (relative to sTRSVctl = 100) (log10 (% of sTRSVctl)); ligand: hypoxanthine (xanthine aptamer); higher = less ribozyme self-cleavage, higher mRNA level
- TEST_CONDITIONS: HEK293T, reporter: mCherry (pCS4076), ligand present: no
// normalized RNA/DNA level without ligand (log10) lookup, one value per entry
RECORDED_METRIC: normalized RNA/DNA level without ligand (log10)

- MUTATION_CODE: "UUCAGA"
  VALUE_OBSERVED: 1.82
- MUTATION_CODE: "GUCUAC"
  VALUE_OBSERVED: 1.8
- MUTATION_CODE: "AUCCUG"
  VALUE_OBSERVED: 1.54
- MUTATION_CODE: "UGUGCG"
  VALUE_OBSERVED: 1.68
- MUTATION_CODE: "CCUCGA"
  VALUE_OBSERVED: 1.87
- MUTATION_CODE: "GGGUCA"
  VALUE_OBSERVED: 1.91
- MUTATION_CODE: "CUCAAA"
  VALUE_OBSERVED: 1.78
- MUTATION_CODE: "CGGCCU"
  VALUE_OBSERVED: 1.93
- MUTATION_CODE: "AUCGGG"
  VALUE_OBSERVED: 1.52
- MUTATION_CODE: "GGCAAA"
  VALUE_OBSERVED: 1.83
- MUTATION_CODE: "CUAUAG"
  VALUE_OBSERVED: 1.69
- MUTATION_CODE: "CACCUG"
  VALUE_OBSERVED: 1.92
- MUTATION_CODE: "CGGCGC"
  VALUE_OBSERVED: 1.93
- MUTATION_CODE: "AUCCCA"
  VALUE_OBSERVED: 1.88
- MUTATION_CODE: "CUGAUA"
  VALUE_OBSERVED: 1.7
- MUTATION_CODE: "UCUGUG"
  VALUE_OBSERVED: 1.71
- MUTATION_CODE: "GACGUA"
  VALUE_OBSERVED: 1.77
- MUTATION_CODE: "AAUUCU"
  VALUE_OBSERVED: 1.86
- MUTATION_CODE: "ACGGCU"
  VALUE_OBSERVED: 1.6
- MUTATION_CODE: "CACUUG"
  VALUE_OBSERVED: 1.88
- MUTATION_CODE: "GGCAAG"
  VALUE_OBSERVED: 1.47
- MUTATION_CODE: "GGGUUA"
  VALUE_OBSERVED: 1.84
